testTarget: MAPK14 (human)
protocolDescription: KINOMEscan competition binding
recordedConditions: compound 10.0 µM
readoutName: kinase still bound, per cent of control

kinase still bound, per cent of control reading for Cc1ccc(C(=O)Nc2cccc(C(C)(C)C)c2)cc1-c1ccc(C(=O)NCC2CC2)cc1 : 0%

For this molecule ( Cc1ccc(NC(=O)c2cccc(N3CCCCC3)c2)cc1-c1ccc(C(=O)NCC2CC2)cc1 ), measured kinase still bound, per cent of control is 0%

Given item O=C(Nc1n[nH]c2nc(-c3cccc(O)c3)ccc12)C1CC1 , the value recorded as its kinase still bound, per cent of control is no effect (inactive)

kinase still bound, per cent of control measured on Cc1cc(Nc2cc(N3CCN(C)CC3)nc(Sc3ccc(NC(=O)C4CC4)cc3)n2)[nH]n1 = no effect (inactive)

Others:
Record NC(=O)c1ccc(-c2cc(C(N)=O)c(N)c(-c3ccc(S(N)(=O)=O)cc3)c2)cc1 , field kinase still bound, per cent of control: no effect (inactive)

For c1ccc(-c2n[nH]cc2-c2ccnc3ccccc23)nc1 the molecule record lists kinase still bound, per cent of control as no effect (inactive)
